Collected set of pKi measured with Carbonic anhydrase 1 (Homo sapiens, UniProt P00915) across studies.
pKi: −log10 of the molar value.

Answered examples (2):
C=CCN1CCN(Cc2c(O)ccc3c(C)cc(=O)oc23)CC1 = < 5.00
COc1cc(/C=C/C(=O)OCCCCCCCN(CCCOC(=O)/C=C/c2cc(OC)c(OC)c(OC)c2)CCCOc2ccc3ccc(=O)oc3c2)cc(OC)c1OC = < 5.00

Moving on to another molecule below.
For the molecule `O=C(NC(=S)N1CCOCC1)c1cc2ccccc2oc1=O` , report pKi. < 5.00

###

Collected set of Ki measured with Carbonic anhydrase 1 (Homo sapiens, UniProt P00915) across studies.

Cc1cccc2sc(NC(=O)CNC(=O)OCC3c4ccccc4-c4ccccc43)nc12 = > 100 µM
O=C(COc1ccc2oc(=O)ccc2c1)Nc1ccc(F)cc1 = > 10 µM
C[C@@H](NC(=O)OC(C)(C)C)C(=O)Nc1ccc2c(c1)NC(=O)CC2 (stereo in doubt) = > 100 µM

For the compound `NS(=O)(=O)c1ccc(NC(=O)NCCNCc2ccc(-c3ccccc3)cc2)cc1` , report Ki. 0.782 µM

For the compound CSCCC(NC(=O)OCc1ccccc1)C(=O)Nc1ccc(-c2nc3ccc(C)cc3s2)cc1 (centres unmarked) , report Ki. > 100 µM

For the compound `CC1(C)N=C(N)N=C(Nc2ccc(S(N)(=O)=O)cc2)N1` , report Ki. 6.84 µM

For the compound `N#CCc1nc(N)nc(Nc2ccc(S(N)(=O)=O)cc2)n1` , report Ki. 0.0723 µM

For the compound `COc1cc(/C=C/C(=O)OCCCN(CCCCCCCOC(=O)c2cc(OC)c(OC)c(OC)c2)CCCOc2ccc3ccc(=O)oc3c2)cc(OC)c1OC` , report Ki. > 10 µM

For the compound `O=C(OCCCCCCCN(CCCOC(=O)c1c2ccccc2cc2ccccc12)CCCOc1ccc2ccc(=O)oc2c1)c1c2ccccc2cc2ccccc12` , report Ki. > 10 µM

For the compound `COc1cc(C(=O)OCCCCCN(CCCOC(=O)c2c3ccccc3cc3ccccc23)CCCOc2ccc3ccc(=O)oc3c2)cc(OC)c1OC` , report Ki. > 10 µM

For the compound `Cc1cc(=O)oc2c(CN3CCN(C)CC3)c(O)ccc12` , report Ki. > 10 µM

For the compound `Cc1cc(C)cc(NCc2cn(-c3ccc4oc(=O)ccc4c3)nn2)c1` , report Ki. > 50 µM

For the compound `CC(C)c1ccc(NCc2cn(-c3ccc4oc(=O)ccc4c3)nn2)cc1` , report Ki. > 50 µM

For the compound `COc1cc(/C=C/C(=O)OCCCCCCN(CCCOC(=O)c2c3ccccc3cc3ccccc23)CCCOc2ccc3ccc(=O)oc3c2)cc(OC)c1OC` , report Ki. > 10 µM

For the compound `O=c1ccc2cc(-n3cc(CNc4ccc(F)cc4)nn3)ccc2o1` , report Ki. > 50 µM

For the compound `NC1=NC2(CCCCC2)N(c2ccc(S(=O)(=O)Nc3nccs3)cc2)C(N)=N1` , report Ki. > 10 µM

For the compound `Cc1cccc(NCc2cn(-c3ccc4oc(=O)ccc4c3)nn2)c1C` , report Ki. > 50 µM

###

Collected set of pKi measured with Carbonic anhydrase 1 (Homo sapiens, UniProt P00915) across studies.
pKi: −log10 of the molar value.
RECORDED METRIC: pKi

Answered examples (5):
COc1ccc(-c2nc(Nc3ccc(C(=O)O)cc3)c3ccccc3n2)cc1 = 4.18
NS(=O)(=O)c1ccc(CCC(=O)N2CC(=O)N3CCc4ccccc4C3C2)cc1 (centres unmarked) = 7.17
NS(=O)(=O)c1ccc(OCCF)cc1 = 4.51
CCOC(=O)c1ccc(NC(=S)NC(=O)c2ccc(Br)cc2)cc1 = 7.07
C[C@@H](NC(=O)OC(C)(C)C)C(=O)NCCc1ccc(S(N)(=O)=O)cc1 = 7.13

(a) COc1cc(/C=C/C(=O)OCCCN(C)CCCOC(=O)c2ccc(S(N)(=O)=O)cc2)cc(OC)c1OC
(b) NS(=O)(=O)c1ccc(NC(=O)NCCNCc2ccc(O)cc2)cc1
(c) NS(=O)(=O)c1ccc(NC(=O)CCc2c[nH]c3ccccc23)cc1
(d) Cc1cccc(C(=O)N2CCc3cc(S(N)(=O)=O)ccc32)c1
Please order the records by their reported pKi, lowest number first. Response field: labels, in requested order. b, d, c, a
(b: 6.11, d: 6.66, c: 7.01, a: 7.26)

###

Collected set of pKi measured with Carbonic anhydrase 1 (Homo sapiens) across studies.
pKi: −log10 of the molar value.

For the compound CC1CCC2(CC1)N=C(N)N=C(N)N2c1ccc(S(=O)(=O)Nc2nccs2)cc1 (centres unmarked) , report pKi. < 5.00

For the compound `CCOc1ccc2nc(NC(=O)CNC(=O)OC(C)(C)C)sc2c1` , report pKi. < 4.00

For the compound `Cc1cccc(NS(=O)(=O)c2ccc(N3C(=O)c4ccccc4C3=O)cc2)c1` , report pKi. < 5.00

For the compound `O=C(COc1ccc2oc(=O)ccc2c1)NCCc1ccccc1` , report pKi. < 5.00

For the compound `Cc1cc(=O)oc2c(CN3CCN(c4ccc(F)cc4)CC3)c(O)ccc12` , report pKi. < 5.00

For the compound `CC(C)C(=O)Nc1cccc(C(=O)NC(=S)Nc2ccc(C(=O)O)cc2)c1` , report pKi. < 4.00

For the compound `CN(C)c1ccc(CNCCNC(=O)Nc2ccc(S(N)(=O)=O)cc2)cc1` , report pKi. 5.82

For the compound `COc1cc(/C=C/C(=O)OCCCN(CCCCCCOC(=O)c2c3ccccc3cc3ccccc23)CCCOc2ccc3ccc(=O)oc3c2)cc(OC)c1OC` , report pKi. < 5.00

###

pKi: −log10 of the molar value.
Collected set of pKi measured with Carbonic anhydrase 1 (Homo sapiens, UniProt P00915) across studies.

Answered examples (3):
O=C(NC(=S)NCCC1=CCCCC1)c1cc2ccccc2oc1=O = < 5.00
CN(C)CCCNC(=S)NC(=O)c1cc2ccccc2oc1=O = < 5.00
Cc1cc(=O)oc2c(CN3CCN(c4ccc(Cl)cc4)CC3)c(O)ccc12 = < 5.00

Moving on to another molecule below.
For the molecule `CN1CCN(S(=O)(=O)c2ccc(N3C(=O)c4ccccc4C3=O)cc2)CC1` , report pKi. < 5.00

###

Collected set of Ki measured with UniProtKB P00915 across studies.

Name the value of Ki reported for `CCOC(=O)c1ccc(NC(=O)NCc2cn(CCCS(N)(=O)=O)nn2)cc1` when tested on UniProtKB P00915. > 10 µM

Name the value of Ki reported for `O=C(NC(=S)N1CCCCC1)c1cc2ccccc2oc1=O` when tested on UniProtKB P00915. > 10 µM

Name the value of Ki reported for `CCOC(=O)c1ccc(NC(=O)NCc2cn(CCCCS(N)(=O)=O)nn2)cc1` when tested on UniProtKB P00915. 6.52 µM

Name the value of Ki reported for `Cc1ccc(C(=O)Nc2cccc(C(=O)NC(=S)Nc3ccc(C(=O)O)cc3)c2)cc1` when tested on UniProtKB P00915. 9.17 µM

Name the value of Ki reported for `Cc1cccc(NCc2cn(-c3ccc4oc(=O)ccc4c3)nn2)c1` when tested on UniProtKB P00915. > 50 µM

Name the value of Ki reported for `COc1ccc(NS(=O)(=O)c2ccc(Nc3ncc4c(n3)CCCC4=O)cc2)cc1` when tested on UniProtKB P00915. > 100 µM

Name the value of Ki reported for `O=C(O)COc1ccc2ccc(=O)oc2c1` when tested on UniProtKB P00915. > 10 µM

Name the value of Ki reported for `NS(=O)(=O)c1ccc(NC(=O)NCCNCc2ccc(Br)cc2O)cc1` when tested on UniProtKB P00915. 0.138 µM

Name the value of Ki reported for `COc1cc(/C=C/C(=O)OCCCCCCCN(CCCOC(=O)c2cc(OC)c(OC)c(OC)c2)CCCOc2ccc3ccc(=O)oc3c2)cc(OC)c1OC` when tested on UniProtKB P00915. > 10 µM

###

Collected set of Ki measured with Carbonic anhydrase 1 (Homo sapiens, UniProt P00915) across studies.
RECORDED METRIC: Ki (µM)

Answered examples (2):
NS(=O)(=O)c1ccc(CCNC(=O)NCc2cn(CCCS(=O)(=O)[O-])nn2)cc1.[Na+] = 0.0768
COc1ccc(C(=O)N2CCc3cc(S(N)(=O)=O)ccc32)cc1 = 0.0777

(a) NS(=O)(=O)c1ccc(OCc2cn(CCCS(=O)(=O)[O-])nn2)cc1.[Na+]
(b) NS(=O)(=O)c1ccc(CCNC(=O)Nc2ccc(C(=O)N3CC(=O)N4CCc5ccccc5C4C3)cn2)cc1 (stereo not shown)
Pick one, a or b : lowest reported Ki. State the label of the item chosen. a
(a: 0.0827 µM, b: 0.128 µM)
